- tested on: ERα (Homo sapiens, UniProt P03372)
- Sequence (P03372 whole entry): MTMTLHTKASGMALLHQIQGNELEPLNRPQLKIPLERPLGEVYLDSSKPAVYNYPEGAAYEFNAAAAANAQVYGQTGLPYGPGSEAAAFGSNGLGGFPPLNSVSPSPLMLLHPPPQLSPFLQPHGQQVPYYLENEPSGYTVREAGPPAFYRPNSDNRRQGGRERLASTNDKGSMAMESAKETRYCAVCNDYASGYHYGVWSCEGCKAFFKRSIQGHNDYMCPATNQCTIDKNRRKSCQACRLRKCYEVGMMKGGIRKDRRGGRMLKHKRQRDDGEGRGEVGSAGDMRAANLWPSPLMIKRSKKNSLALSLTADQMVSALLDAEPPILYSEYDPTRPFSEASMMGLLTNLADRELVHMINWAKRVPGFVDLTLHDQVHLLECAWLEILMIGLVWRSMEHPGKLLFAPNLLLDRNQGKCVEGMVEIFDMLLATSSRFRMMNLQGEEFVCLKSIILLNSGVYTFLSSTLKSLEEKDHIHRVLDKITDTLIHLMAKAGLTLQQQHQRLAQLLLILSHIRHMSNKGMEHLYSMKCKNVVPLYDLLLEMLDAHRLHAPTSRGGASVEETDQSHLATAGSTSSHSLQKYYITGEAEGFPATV
- assay protocol: Degradation of ERα in T-47D cells (immunoblotting, 4 h)
- Type: cell-based
- Design: host or cells: T-47D
- condition context: 1nM compound
observable: Degradation rate (%) of ERα in T-47D cells

molecule	meas value
O=C1CCC(N2Cc3c(ccc4c3OCC43CCN(C4CCN(C(=O)C5CCN(c6ccc([C@@H]7c8ccc(O)cc8CC[C@@H]7c7ccccc7)cc6)CC5)[C@H](C(=O)N5CCC5)C4)CC3)C2=O)C(=O)N1 (some centres unmarked)	58
O=C1CCC(N2Cc3c(ccc4c3OCC43CCN(C4CCN(C(=O)C5CCN(c6ccc(C7c8ccc(O)cc8CCC7c7ccccc7)cc6)CC5)CC4F)CC3)C2=O)C(=O)N1 (centres unmarked)	47
CCN(C1CCN(c2ccc([C@@H]3c4ccc(O)cc4CC[C@@H]3c3ccccc3)cc2)CC1)[C@H]1CC[C@@H](C(=O)N2CCC3(CC2)COc2c3ccc3c2CN(C2CCC(=O)NC2=O)C3=O)CC1 (some centres unmarked)	57
O=C1CCC(N2Cc3ccc4c(c3C2=O)OC2(CC4)CCN(C3CC4(CCN(c5ccc([C@@H]6c7ccc(O)cc7CC[C@@H]6c6ccccc6)cc5)CC4)C3)CC2)C(=O)N1 (some centres unmarked)	-6

[P] CC1CC(N2CCC3(CC2)COc2c3ccc3c2CN(C2CCC(=O)NC2=O)C3=O)CCN1C1CCN(c2ccc(C3c4ccc(O)cc4CCC3c3ccccc3)cc2)CC1 (centres unmarked)
[Q] O=C1CCC(N2Cc3c(ccc4c3OCC43CCN(C4CCN(C5CC6(CCN(c7ccc([C@@H]8c9ccc(O)cc9CC[C@@H]8c8ccccc8)cc7)CC6)C5)[C@H](C(=O)NC5CC5)C4)CC3)C2=O)C(=O)N1 (some centres unmarked)
[R] O=C1CCC(N2Cc3cc4c(cc3C2=O)CCC2(CN(C3CCC5(CC3)CN(c3ccc([C@@H]6c7ccc(O)cc7CC[C@@H]6c6ccccc6)cc3)C5)C2)O4)C(=O)N1 (some centres unmarked)
Order the entries by their reported Degradation rate (%) of ERα in T-47D cells, beginning at the minimum. Lab note: record answer as labels in requested order.
P, R, Q

[1] C[C@@H]1Cc2c(ccc3[nH]ncc23)C(c2ccc(N3CCC4(CC3)CC(N3CC[C@@H](N5CCC6(CC5)COc5c6ccc6c5CN(C5CCC(=O)NC5=O)C6=O)[C@@H](F)C3)C4)cn2)N1CC(F)(F)F (some centres unmarked)
[2] C[C@@H]1Cc2c(ccc3[nH]ncc23)[C@@H](c2c(F)cc(N3CCN(C[C@H]4CC[C@H](C(=O)N5CCC6(CC5)COc5c6ccc6c5CN(C5CCC(=O)NC5=O)C6=O)CC4)CC3)cc2F)N1CC(F)F (some centres unmarked)
Quick check, higher Degradation rate (%) of ERα in T-47D cells between 1 and 2 ? Selection: enter the item's label.
1
(1: 53%, 2: 27%)

[A] O=C1CCC(N2Cc3c(ccc4c3OCC43CCN(C(=O)CN4CCC5(CCN(c6ccc([C@@H]7c8ccc(O)cc8CC[C@@H]7c7ccccc7)cc6)C5)C4)CC3)C2=O)C(=O)N1 (some centres unmarked)
[B] O=C1CCC(N2C(=O)c3cc4c(cc3C2=O)OC2(CC4)CN(C3CC4(CCN(c5ccc([C@@H]6c7ccc(O)cc7CC[C@@H]6c6ccccc6)cc5)CC4)C3)C2)C(=O)N1 (some centres unmarked)
[C] O=C1CCC(N2C(=O)c3cc4c(cc3C2=O)C2(CCN(C3CC5(CCN(c6ccc([C@@H]7c8ccc(O)cc8CC[C@@H]7c7ccccc7)cc6)CC5)C3)CC2)CO4)C(=O)N1 (some centres unmarked)
[D] O=C1CCC(N2Cc3c(ccc4c3OC3(CC4)CCN(C4CN(C5CCN(c6ccc([C@@H]7c8ccc(O)cc8CC[C@@H]7c7ccccc7)cc6)CC5)C4)CC3)C2=O)C(=O)N1 (some centres unmarked)
Ranking field: Degradation rate (%) of ERα in T-47D cells; order: falling. Your reply should list the labels following the order given in the request.
A, B, D, C

Source listed as patent EP4656642A1.
